Target: Amyloid-beta(1-42) oligomer binding to heparin (HS-GAG) (Homo sapiens)
Construct: Beta-amyloid (1-42) was purchased from rPeptide (Cat. No. A1163); purchased rPeptide A1163
Sequence (P05067 672-713): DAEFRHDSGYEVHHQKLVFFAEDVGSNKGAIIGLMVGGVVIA
Test: Inhibition of Amyloid-beta(1-42) oligomer binding to immobilized heparin-BSA (ELISA)
Parameters: species or system porcine
Settings: Abeta(1-42) oligomers, co-incubation on heparin-BSA plates; read-out: Abeta42/Heparin Activity (IC-50)
pIC50: −log10 of the molar value. Structures can show the parent of a compound that is named as a salt.
Classify as follows. Reported pIC50 greater than or equal to 5: criterion met. Reported pIC50 below: criterion not met.

Check this molecule for pIC50 at or above 5: Cc1cc(-n2ccnc2)ccc1/C=N/Nc1ccnc2cc(Cl)ccc12 [Compound 1]
criterion met

Item C/C(=N\Nc1ncnc2cc(Cl)ccc12)c1ccc(-n2cnc(C)c2C)nc1 [Compound 16, phosphate] with pIC50 of 5 or above?
criterion met

// inclusive: pIC50 at least 5? input: Clc1ccc2c(Nc3ccc(-n4ccnc4)nc3)ncnc2c1 [Compound 41]
criterion not met

Decide: is the reported value of pIC50 for C[N+](C)(C)Cc1ccc(/C=N\Nc2ccnc3ccc(Cl)cc23)cc1 [Compound 4] equal to or greater than 5?
criterion not met

Would you say Cc1ncn(-c2ccc(/C=N\Nc3ncnc4cc(Cl)ccc34)cn2)c1C [Compound 15, hydrochloride] shows pIC50 at minimum 5?
criterion not met

In plain terms: is recorded pIC50 at least 5 for Clc1ccc2c(Nc3ccc(-n4cncn4)nc3)ccnc2c1 [Compound 44] ?
criterion not met

# bool: pIC50 of Clc1ccc2c(N/N=C/c3ccc(-n4cccn4)cc3)ccnc2c1 [Compound 3] >= 5
criterion met

Test whether the molecule C/C(=N\Nc1nncc2cc(Cl)ccc12)c1ccc(-n2cc(C)nc2C)nc1 [Compound 24] records pIC50 of 5 or higher.
criterion not met

Does the reported pIC50 for Clc1ccc2c(N/N=C/c3ccc(-n4ccnc4)cc3)ccnc2c1 [Compound 38, dihydrochloride] fall at or above the 5 mark?
criterion met

Quick check: does CC(=NNc1ccnc2cc(Cl)ccc12)c1ccc(-n2ccnc2)cc1 [Compound 36, phosphate] have pIC50 greater than or equal to 5?
criterion not met

Say whether Cc1ncn(-c2ccc(/C=N/Nc3ccnc4cc(Cl)ccc34)cc2)c1C [Compound 2] shows pIC50 of 5 or more.
criterion not met

Given the entry Fc1cc(/C=N/Nc2ccnc3cc(Cl)ccc23)ccc1-n1ccnc1 [Compound 35, hydrochloride] , answer whether its pIC50 meets or surpasses 5.
criterion not met
